# System: HCC-44
# Assay remarks: relative viability (nuclei count vs DMSO), 5 days (fraction); higher = more cells survive
# Experimental conditions: first compound 0.02 µM
relative viability strictly under 1 means y; at 1 or over means n.

CN1CCN(CCOc2cc(OC3CCOCC3)c3c(Nc4c(Cl)ccc5c4OCO5)ncnc3c2)CC1 [Saracatinib] + N=C(N)NC(=N)NCCc1ccccc1 [Phenformin] (partner 250 µM)    y
CCNC(=O)c1noc(-c2cc(C(C)C)c(O)cc2O)c1-c1ccc(CN2CCOCC2)cc1 [Luminespib] + Nc1ncn([C@H]2C[C@H](O)[C@@H](CO)O2)c(=O)n1 [Decitabine] (partner 2 µM)    y

INPUT: Does the reported relative viability of CCNC(=O)c1noc(-c2cc(C(C)C)c(O)cc2O)c1-c1ccc(CN2CCOCC2)cc1 [Luminespib] + NC(=O)Nc1cc(-c2cccc(F)c2)sc1C(=O)N[C@H]1CCCNC1 [AZD7762] (partner 0.2 µM) stay below 1?
OUTPUT: n

INPUT: Entry CN1CCN(CCOc2cc(OC3CCOCC3)c3c(Nc4c(Cl)ccc5c4OCO5)ncnc3c2)CC1 [Saracatinib] + CC1(C)CCC(c2ccc(Cl)cc2)=C(CN2CCN(c3ccc(C(=O)NS(=O)(=O)c4ccc(N[C@H](CCN5CCOCC5)CSc5ccccc5)c(S(=O)(=O)C(F)(F)F)c4)cc3)CC2)C1 [Navitoclax] (partner 0.5 µM) please
OUTPUT: n

INPUT: Entry CN1CCN(CCOc2cc(OC3CCOCC3)c3c(Nc4c(Cl)ccc5c4OCO5)ncnc3c2)CC1 [Saracatinib] + Cc1nc(NC(=O)N2CCC[C@H]2C(N)=O)sc1-c1ccnc(C(C)(C)C(F)(F)F)c1 [Alpelisib] (partner 2 µM) please
OUTPUT: y

----------
# Tested on: NCI-H1915
# Assay remarks: relative viability (nuclei count vs DMSO), 5 days (fraction); higher = more cells survive
# Experimental conditions: first compound 0.02 µM
relative viability strictly under 0.5 means Y; at 0.5 or over means N.

CCNC(=O)c1noc(-c2cc(C(C)C)c(O)cc2O)c1-c1ccc(CN2CCOCC2)cc1 [Luminespib] + CC(=O)c1c(C)c2cnc(Nc3ccc(N4CCNCC4)cn3)nc2n(C2CCCC2)c1=O [Palbociclib] (partner 0.5 µM)    Y
CN1CCN(CCOc2cc(OC3CCOCC3)c3c(Nc4c(Cl)ccc5c4OCO5)ncnc3c2)CC1 [Saracatinib] + O=C(CCCCCCC(=O)Nc1ccccc1)NO [Vorinostat] (partner 1 µM)    Y
CCNC(=O)c1noc(-c2cc(C(C)C)c(O)cc2O)c1-c1ccc(CN2CCOCC2)cc1 [Luminespib] + Cc1nc(NC(=O)N2CCC[C@H]2C(N)=O)sc1-c1ccnc(C(C)(C)C(F)(F)F)c1 [Alpelisib] (partner 2 µM)    N

INPUT: Does the reported relative viability of CN1CCN(CCOc2cc(OC3CCOCC3)c3c(Nc4c(Cl)ccc5c4OCO5)ncnc3c2)CC1 [Saracatinib] + CS(=O)(=O)N1CCN(Cc2cc3nc(-c4cccc5[nH]ncc45)nc(N4CCOCC4)c3s2)CC1 [Pictilisib] (partner 1 µM) stay below 0.5?
OUTPUT: N

INPUT: Entry CCNC(=O)c1noc(-c2cc(C(C)C)c(O)cc2O)c1-c1ccc(CN2CCOCC2)cc1 [Luminespib] + Cc1cc(Nc2cc(N3CCN(C)CC3)nc(Sc3ccc(NC(=O)C4CC4)cc3)n2)n[nH]1 [Tozasertib] (partner 0.1 µM) please
OUTPUT: Y

INPUT: Entry CCNC(=O)c1noc(-c2cc(C(C)C)c(O)cc2O)c1-c1ccc(CN2CCOCC2)cc1 [Luminespib] + O=C(c1cc(Cc2n[nH]c(=O)c3ccccc23)ccc1F)N1CCN(C(=O)C2CC2)CC1 [Olaparib] (partner 8 µM) please
OUTPUT: Y

INPUT: Entry CCNC(=O)c1noc(-c2cc(C(C)C)c(O)cc2O)c1-c1ccc(CN2CCOCC2)cc1 [Luminespib] + Nc1nc2[nH]cc(CCc3ccc(C(=O)N[C@@H](CCC(=O)O)C(=O)O)cc3)c2c(=O)[nH]1 [Pemetrexed] (partner 0.2 µM) please
OUTPUT: Y
